Recorded Average EC50, HEK-Blue IL-2R (CD122+, CD132+) Reporter Assay, Matriptase cleaved molecule for the following binders
Target: T1, IL-2Rβγ on HEK-Blue IL-2Rβγ reporter cells (InvivoGen) (UniProt P14784 27-551; P31785 23-369, limits assumed)
T1 sequence (looked up) 1: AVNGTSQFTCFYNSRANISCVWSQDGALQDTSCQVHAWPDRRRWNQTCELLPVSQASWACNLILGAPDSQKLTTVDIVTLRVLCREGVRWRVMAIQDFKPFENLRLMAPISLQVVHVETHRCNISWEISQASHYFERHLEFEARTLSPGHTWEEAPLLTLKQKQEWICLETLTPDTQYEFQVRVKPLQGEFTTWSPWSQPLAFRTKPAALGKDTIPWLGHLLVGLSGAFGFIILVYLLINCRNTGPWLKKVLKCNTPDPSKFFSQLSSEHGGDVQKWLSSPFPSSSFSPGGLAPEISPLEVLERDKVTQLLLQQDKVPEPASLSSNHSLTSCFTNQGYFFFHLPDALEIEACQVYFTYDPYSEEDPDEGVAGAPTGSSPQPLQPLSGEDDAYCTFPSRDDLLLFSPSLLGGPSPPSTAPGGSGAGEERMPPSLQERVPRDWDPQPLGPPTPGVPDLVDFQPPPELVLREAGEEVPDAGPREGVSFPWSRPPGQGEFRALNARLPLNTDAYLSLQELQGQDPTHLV
T1 sequence (looked up) 2: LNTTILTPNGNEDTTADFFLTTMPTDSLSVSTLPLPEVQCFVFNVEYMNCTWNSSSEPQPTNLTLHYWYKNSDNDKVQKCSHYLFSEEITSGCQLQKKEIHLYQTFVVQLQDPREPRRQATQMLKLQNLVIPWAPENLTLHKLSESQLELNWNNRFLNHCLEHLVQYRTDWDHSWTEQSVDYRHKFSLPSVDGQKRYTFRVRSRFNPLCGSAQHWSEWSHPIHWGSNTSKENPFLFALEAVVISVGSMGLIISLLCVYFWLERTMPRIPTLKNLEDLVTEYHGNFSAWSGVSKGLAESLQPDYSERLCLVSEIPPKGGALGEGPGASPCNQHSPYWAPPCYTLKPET
Assay: cell-based or functional assay
Primed or numbered codes have the meaning given here. [ ]: non-standard residue; d: D form. 8x polyethylene glycol‑amino = O-(8x polyethylene glycol-amino)-tyrosine, SITE 45; 9x polyethylene glycol‑azido = O-(9x polyethylene glycol-azido)-tyrosine, SITE 42; Ygp = O-(8x polyethylene glycol-amino)-tyrosine (Tyr, amino-capped PEG8); Yn3 = O-(9x polyethylene glycol-azido)-tyrosine (Tyr, azide-capped PEG9); Ygp″ = O-(8x polyethylene glycol-amino)-tyrosine; Yn3″ = O-(9x polyethylene glycol-azido)-tyrosine; Ygp(6) = Tyr, amino-capped PEG8; Yn3(6) = Tyr, azide-capped PEG9; hSer = N[C@@H](CCO)C(=O)O; Nle = CCCC[C@H](N)C(=O)O
# number only, unit pM dropped from output

binder | observed-value
CMP-330, matriptase cleaved (ligand, not fully specified; also: before the cut Lys9 and Glu23 side chains are bridged by a peptide linker, what remains after the cut not given here) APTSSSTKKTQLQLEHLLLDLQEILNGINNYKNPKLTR[Nle]L[hSer]Y(9x polyethylene glycol‑azido)KFY(8x polyethylene glycol‑amino)[Nle]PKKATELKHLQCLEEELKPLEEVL[hSer]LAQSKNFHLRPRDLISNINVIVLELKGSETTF[hSer]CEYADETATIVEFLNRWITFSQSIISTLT | 2150
CMP-329, matriptase cleaved (ligand, ends and bridges not checked; also: after matriptase cleavage, remnants of the Lys9–Glu23 peptide linker not given here) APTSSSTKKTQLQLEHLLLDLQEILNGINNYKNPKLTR[Nle]L[hSer][Yn3″]KF[Ygp″][Nle]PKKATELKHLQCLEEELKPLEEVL[hSer]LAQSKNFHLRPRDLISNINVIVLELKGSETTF[hSer]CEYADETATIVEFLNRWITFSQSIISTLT | 1470
CMP-321, matriptase cleaved (ligand, not fully specified (bridges)) SGRVQPLVDAPTSSSTKKTQLQLEHLLLDLQEILNGINNYKNPKLTR[Nle]L[hSer][Yn3(6)]KF[Ygp(6)][Nle]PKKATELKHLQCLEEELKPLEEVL[hSer]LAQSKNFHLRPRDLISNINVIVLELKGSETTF[hSer]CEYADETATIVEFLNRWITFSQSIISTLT | 4220
CMP-328, matriptase cleaved (ligand, also: matriptase-cleaved, before the cut Lys9-Glu23 side chains bridged by peptide linker, product not given here) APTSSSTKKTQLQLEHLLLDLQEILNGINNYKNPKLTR[Nle]L[hSer][Yn3]KF[Ygp][Nle]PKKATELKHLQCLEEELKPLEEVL[hSer]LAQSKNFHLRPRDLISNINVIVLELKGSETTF[hSer]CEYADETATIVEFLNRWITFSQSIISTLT | 352
CMP-316, matriptase cleaved (ligand, ends and bridges not checked; also: further groups not given here, tested after matriptase cleavage, remaining product not given here) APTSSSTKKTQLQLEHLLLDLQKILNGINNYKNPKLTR[Nle]L[hSer][Yn3]KF[Ygp][Nle]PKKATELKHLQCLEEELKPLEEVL[hSer]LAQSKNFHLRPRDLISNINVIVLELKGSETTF[hSer]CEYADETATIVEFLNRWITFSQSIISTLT | 82.8

Now let's try a different one.
Prompt: Given CMP-315, matriptase cleaved (ligand, ends and bridges not checked; also: further groups not given here, tested after matriptase cleavage, remaining product not given here) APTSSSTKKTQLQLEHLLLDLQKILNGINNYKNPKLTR[Nle]L[hSer][Yn3]KF[Ygp][Nle]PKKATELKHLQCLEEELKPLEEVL[hSer]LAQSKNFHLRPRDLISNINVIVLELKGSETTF[hSer]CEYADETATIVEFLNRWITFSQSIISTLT , respond with its Average EC50, HEK-Blue IL-2R (CD122+, CD132+) Reporter Assay, Matriptase cleaved molecule.
Response: 34.9
